# TARGET OR SYSTEM: UniProt:O43614
# Sequence (O43614 whole entry): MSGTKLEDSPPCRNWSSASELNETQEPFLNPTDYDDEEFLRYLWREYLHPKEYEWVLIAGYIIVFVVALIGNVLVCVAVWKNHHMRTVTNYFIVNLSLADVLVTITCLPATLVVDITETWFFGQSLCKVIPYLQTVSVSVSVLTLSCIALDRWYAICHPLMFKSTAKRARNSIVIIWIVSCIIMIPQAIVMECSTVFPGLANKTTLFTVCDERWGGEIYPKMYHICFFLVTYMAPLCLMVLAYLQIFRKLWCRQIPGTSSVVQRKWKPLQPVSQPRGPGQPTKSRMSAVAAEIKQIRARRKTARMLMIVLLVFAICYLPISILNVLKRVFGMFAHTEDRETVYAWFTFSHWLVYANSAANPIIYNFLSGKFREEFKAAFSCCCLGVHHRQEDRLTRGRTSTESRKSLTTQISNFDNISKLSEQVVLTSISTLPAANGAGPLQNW
# TEST SUMMARY: IPOne (IP-1 accumulation) assay in CHO cells expressing human OX2R
# RECORDED CONDITIONS: CHO cells expressing human OX2R; IP-One assay, 2 h incubation; four parameter logistic fit; read-out: OX2R Potency, EC50
ASSAY METRIC: pEC50
One number for each entry, as −log10 of the molar value.

Worked examples follow.
compound="C#CC(CCC(F)(F)F)NC(=O)N(CC)[C@H](C)c1cccc(-c2cn3ccnc3c(OC)n2)c1 (some centres unmarked)" value_reported=8.40
compound="CCN(C(=O)N[C@@H](CCC(F)(F)F)C(F)(F)F)C(c1cnc(OC)c(-c2cn3ccnc3c(OC)n2)c1)C(F)(F)F (some centres unmarked)" value_reported=8.85
compound="CCN(C(=O)NC(CC(C)=O)C(F)(F)F)[C@@H](c1cc(-c2cn3ccnc3c(OC)n2)c(OC)cn1)C(F)(F)F (some centres unmarked)" value_reported=8.57
compound=CC[C@H](CCC(F)(F)F)NC(=O)N(CC)[C@H](C)c1cccc(-c2cc(Cl)n3nccc3c2)c1 value_reported=6.07
compound="CCN(C(=O)NCC(C)C(F)(F)F)[C@@H](c1cc(-c2cn3ccnc3c(OC)n2)c(OC)cn1)C(F)(F)F (some centres unmarked)" value_reported=7.52

Hi! Can you tell me pEC50 for each of these compounds?
1. CCN(C(=O)NC1CCC(C(F)(F)F)N(C)C1)[C@@H](c1cccc(-c2cn3ccnc3c(OC)n2)c1)C(F)(F)F (some centres unmarked)
2. CCC(CC(C)C(F)(F)F)NC(=O)N(CC)[C@H](C)c1cccc(-c2cn3ccnc3c(OC)n2)c1 (some centres unmarked)
3. CCN(C(=O)N[C@@H](CC(OC)C(F)(F)F)C(F)(F)F)[C@@H](c1cc(-c2cn3cc(C)nc3c(OC)n2)c(OC)cn1)C(F)(F)F (some centres unmarked)
4. CCN(C(=O)N[C@@H](CCC(F)(F)F)C(F)(F)F)[C@@H](c1cc(-c2cc(OC)c3nccn3c2)c(OC)cn1)C(F)(F)F
5. CCN(C(=O)NC(CN1CCOC1=O)C(F)(F)F)[C@@H](c1cc(-c2cn3ccnc3c(OC)n2)c(OC)cn1)C(F)(F)F (some centres unmarked)

8.11
8.34
8.32
9.05
8.96
